Test system: SC27B
ASSAY TEXT: qHTS profiling for inhibitors of Plasmodium falciparum proliferation (AID 504749); further: nearly all actives have a fitted effect of over 60% in size
MEASUREMENT PARAMETERS: P. falciparum in erythrocytes, SYBR Green DNA, 72 h; series mostly up to 28.7 µM
Records with an inconclusive call do not appear. Calls of active or inactive are those of the source. The call rests on the fitted dose curve; in most records, active means well fitted inhibition curve with a large enough effect; inconclusive means small, poorly fitted or top-dose-only effect; inactive means flat fitted curve, though single readings scatter.
Labels: active, inactive

{"columns": ["COMPOUND", "CLASS"],
 "data": [
  ["Cc1c(O)cccc1C(=O)N[C@@H](CSc1ccccc1)[C@H](O)CN1C[C@H]2CCCC[C@H]2C[C@H]1C(=O)NC(C)(C)C", "active"],
  ["COc1ccc2[nH]c(S(=O)Cc3ncc(C)c(OC)c3C)nc2n1 (configuration not stated)", "active"],
  ["CCCCN(CCCC)CC(O)c1cc(Cl)cc2c1-c1ccc(Cl)cc1/C2=C/c1ccc(Cl)cc1 (configuration not stated)", "active"],
  ["CCCCCCCCCCCCOS(=O)(=O)O", "inactive"],
  ["CCCCCCCCCCCCCCCCCCOCC(O)CO (configuration not stated)", "inactive"],
  ["CN(C)CCN(Cc1ccccc1)c1ccccn1", "inactive"],
  ["CC1=C(/C=C/C(C)=C/C=C/C(C)=C/C(=O)O)C(C)(C)CCC1", "inactive"],
  ["CCCOC(=O)c1ccccc1", "inactive"],
  ["CCN(CC)CCSC(=O)C(c1ccccc1)c1ccccc1", "inactive"],
  ["O=C(O)c1ccccn1", "inactive"],
  ["CCC(=O)c1ccc(O)cc1", "inactive"],
  ["Nc1ccc(S(=O)(=O)Nc2ccccc2)cc1", "inactive"]
]}

Numbers sourced from PubChem BioAssay (NCATS).
